Quick list: AC50 per entry.
tested on: human bronchial epithelial cells, CFTR corrector, plate reader; assay: rescue of ΔF508 CFTR function, airway epithelium – human bronchial epithelial cells, plate reader, cherry-pick, two tests, dose response (AID 743267); settings: measured here: test 2 replicate run
REPORTED_PROPERTY: AC50 (µM)

COc1cccc2c1C(=O)c1c(O)c3c(c(O)c1C2=O)CC(O)(C(C)=O)CC3OC1CC(N(C)C)C(O)C(C)O1 (stereo not given) | 14.8
COc1ccc(Nc2nc(-c3sc(C)nc3C)cs2)cc1 | 0.272
C/C(=N\NC(=O)c1c(Cl)c(C)nn1C)c1ccc(NC(=O)C2CCC2)cc1 | 1.1
Clc1ccc(Nc2ccc3ccccc3n2)cc1 | 8.45
COc1ccc(CC(=O)NCc2ccc(-n3cccc3)cc2)cc1OC | 3.53
CCCCN1C(=O)/C(=C/C=C2\Oc3ccccc3N2CC)SC1=S | 9.56
COc1ccccc1/C=C/C=N/NC(=O)CCn1cnc2ccccc21 | 8.01
COc1ccc([C@H]2C[C@H](O)[C@@H](n3cc(-c4ccc(F)cc4)nn3)CN2Cc2cccs2)cc1 | 16

----------
test system: human bronchial epithelial cells, CFTR corrector, plate reader; assay: rescue of ΔF508 CFTR function, airway epithelium – human bronchial epithelial cells, plate reader, cherry-pick, two tests, dose response (AID 743267); conditions: measured here: test 2 replicate run
REPORTED_PROPERTY: log10 AC50 (log10 of the value in µM)

COc1cccc(Nc2nc(-c3sc(NC(=O)c4ccccc4)nc3C)cs2)c1 | 1.06
COc1ccc(NC(=O)C2(C)Cc3c(-c4cccc(NC(C)=O)c4)ccnc3O2)cc1 (stereo unspecified) | 0.66
N#CC(C#N)=C1C=C2C=C(N3CCOCC3)CCC2CC1 (stereo unspecified) | 1.45
Cc1noc(C)c1COc1ccc(C(=O)NNC(=O)c2ccccc2)cc1 | 0.81
COc1ccc(-c2csc(NC(=S)NC(=O)/C=C/c3ccco3)n2)cc1OC | 0.34
COc1ccc(CCNc2c3ccccc3nc3ccccc23)cc1OC | 0.59
COc1ccccc1NC(=O)CSc1ccc(-c2ccccn2)nn1 | 1.30
CC(=O)Nc1ccc(Nc2c3ccccc3nc3ccccc23)cc1 | 0.66
COc1ccc(Nc2nc(-c3sc(C)nc3C)cs2)c(OC)c1 | 1.09
O=C(NCCOc1ccccc1F)c1cc([N+](=O)[O-])ccc1N1CCOCC1 | 0.77
N#CCC(=O)N/N=C/c1cn(Cc2cccc3ccccc23)c2ccccc12 | 0.46

----------
tested on: human bronchial epithelial cells, CFTR corrector, plate reader; assay: rescue of ΔF508 CFTR function, airway epithelium – human bronchial epithelial cells, plate reader, cherry-pick, two tests, dose response (AID 743267); details: measured here: test 2 replicate run
Quick list: AC50 per entry.
REPORTED_PROPERTY: AC50 (µM)

Cc1cccc(N2CCN(C(=O)c3c(-c4ccccc4)noc3C)CC2)c1C | 2.59
Cc1cc(NC(=O)CN2C(=O)NC3(CCCCCC3)C2=O)ccc1Br | 8.4
c1ccc(CCNc2nc(-c3ccccn3)nc3ccccc23)cc1 | 2.77
N#Cc1c(-c2ccc(F)cc2)c(-c2ccc(F)cc2)nn(CCO)c1=O | 2.57
CCOc1cc(/C=N/NC(=O)N/N=C/c2ccc(O)c(OCC)c2)ccc1O | 4.92
Cc1ccc2[nH]c(C(=O)N/N=C/c3ccccc3O)c(C)c2c1 | 1.31
Fc1ccccc1/C=N/NC(=S)Nc1ccc(Cl)cc1Cl | 1.62
COc1ccc(OC)c(N/C(N)=N/c2nc(C)cc(C)n2)c1 | 39.4
COc1cc(NC(=O)COC(=O)c2n[nH]c3ccccc23)c(C)cc1[N+](=O)[O-] | 36.6
Clc1ccc(SCc2cc(N3CCOCC3)nc(-c3ccccn3)n2)cc1 | 4.5
Cc1cccc(N2CCN(Cc3cn(C)nc3-c3ccccc3F)CC2)n1 | 2.43
N=c1sccn1CC(=O)Nc1ccc(S(N)(=O)=O)cc1 | 14.9
COc1ccc(NC(=O)c2nc(C)c(C3(C)CC(c4ccccc4)=NO3)s2)cc1 (configuration not stated) | 3.49
Cc1ccc2c(C)c3ccc4ccccc4c3c[n+]2c1 | 1.06
Cc1ccc(N2CC(C(=O)N(C)CC(=O)Nc3ccc(Cl)c(C(F)(F)F)c3)CC2=O)cc1 (configuration not stated) | 33.3
O=C(N=Nc1c(O)[nH]c2ccc(Br)cc12)c1ccccc1-n1cccc1 | 2.33
Cc1ccc(CNC(=O)c2ccc3c(=O)c(O)c(-c4ccc(C)cc4)[nH]c3c2)cc1 | 4.24
COc1ccc(CNCC(=O)Nc2ccccc2-n2cccc2)cc1 | 6.21
CCOC1=C/C(=C/c2c(N)n3nc(S(=O)(=O)CC)sc3nc2=O)C=CC1=O | 24.9
CCN(CC)C1=CC2=CC(=C(C#N)C#N)CCC2CC1 (configuration not stated) | 0.948

The values you see were collected from PubChem BioAssay AID743267.
